Test: Quantitative High-Throughput drug screen in 47 multiple myeloma cell lines against the NCATS MIPE library collection: MMM1_PLB cell viability assay (AID 1918976); also: potency is read from the fitted curve at half-maximal effect; nearly all actives have a fitted effect of over 35% in size
Conditions: MMM1 myeloma cells viability, CellTiter-Glo, 48 h; series mostly up to 45.8 µM
Records with an inconclusive call do not appear. The source made the active and inactive calls. Calls follow the shape of the dose curve; as a rule, active = well fitted cell-killing curve with a large enough effect; inconclusive = small, poorly fitted or top-dose-only effect, or effect the other way; inactive = no such curve, though single readings can be large or run the other way.

[
  {
    "molecule": "O=C(Nc1ncc(SCCN2CCCC2)s1)[C@]1(c2ccc(S(=O)(=O)C3CC3)cc2)C[C@@H]1C1CCCCC1",
    "Potency": "14.8 µM (active)"
  },
  {
    "molecule": "O=C(Nc1cccc(Cl)c1)Nc1ncc(CCNc2ncnc3ccsc23)s1",
    "Potency": "16.6 µM (active)"
  },
  {
    "molecule": "NC(=O)c1nnn(Cc2cc(Cl)c(C(=O)c3ccc(Cl)cc3)c(Cl)c2)c1N",
    "Potency": "20.9 µM (active)"
  },
  {
    "molecule": "COc1cc([C@H]2Oc3cc([C@H]4Oc5cc(O)cc(O)c5C(=O)[C@H]4O)ccc3O[C@H]2CO)ccc1O",
    "Potency": "7.43 µM (active)"
  },
  {
    "molecule": "CCOC(=O)c1c(CSc2ccccc2)n(C)c2cc(Br)c(O)c(CN(C)C)c12",
    "Potency": "18.7 µM (active)"
  },
  {
    "molecule": "Nc1ccc(-c2ccc3ncc4ccc(=O)n(-c5cccc(C(F)(F)F)c5)c4c3c2)cn1",
    "Potency": "0.0066 µM (active)"
  },
  {
    "molecule": "COc1ccc(CCN(C)CCCOc2ccc(S(=O)(=O)c3[nH]c4ccccc4c3C(C)C)cc2)cc1OC",
    "Potency": "9.35 µM (active)"
  },
  {
    "molecule": "CC1(C)[C@H]2CC[C@]3(C)[C@@H](C(=O)C=C4[C@@H]5C[C@@](C)(C(=O)O)CC[C@]5(C)CC[C@]43C)[C@@]2(C)CC[C@@H]1O",
    "Potency": "3.72 µM (active)"
  },
  {
    "molecule": "CCCC1OC2C[C@@H]3[C@H]4CCC5=CC(=O)C=C[C@]5(C)[C@H]4C(O)C[C@]3(C)[C@]2(C(=O)CO)O1 (stereo partly drawn)",
    "Potency": "0.0066 µM (active)"
  },
  {
    "molecule": "CCCCC(C=O)NC(=O)C(CC(C)C)NC(=O)OCc1ccccc1 (stereo not drawn)",
    "Potency": "6.62 µM (active)"
  },
  {
    "molecule": "O=C1CN2Cc3c(ccc(Cl)c3Cl)N=C2N1",
    "Potency": "23.5 µM (active)"
  },
  {
    "molecule": "Cc1cc(OCCCS(C)(=O)=O)cc(C)c1-c1cccc(COc2ccc3c(c2)OC[C@H]3CC(=O)O)c1",
    "Potency": "14.8 µM (active)"
  },
  {
    "molecule": "CC(C)CN(C[C@@H](O)[C@H](Cc1ccccc1)NC(=O)O[C@H]1CO[C@H]2OCC[C@H]21)S(=O)(=O)c1ccc(N)cc1",
    "Potency": "20.9 µM (active)"
  },
  {
    "molecule": "COc1ccc(-c2ccc3ncc4c(c3c2)n(-c2ccc(N3CCNCC3)c(C(F)(F)F)c2)c(=O)n4C)cn1",
    "Potency": "0.0074 µM (active)"
  },
  {
    "molecule": "CN1N=C(N)c2cn([C@@H]3O[C@H](COP(=O)(O)O)[C@@H](O)[C@@H]3O)c3ncnc1c23",
    "Potency": "0.469 µM (active)"
  },
  {
    "molecule": "CCCCN(CCCC)CC(O)c1cc(Cl)cc2c1-c1ccc(Cl)cc1C2=Cc1ccc(Cl)cc1 (stereo not drawn)",
    "Potency": "23.5 µM (active)"
  },
  {
    "molecule": "Clc1ccc(C2(c3ccc(-c4cn[nH]c4)cc3)CCNCC2)cc1",
    "Potency": "1.48 µM (active)"
  },
  {
    "molecule": "Cc1ccc(NC(=O)c2ccc(CN3CCN(C)CC3)cc2)cc1Nc1nc(-c2cccnc2)cs1",
    "Potency": "18.7 µM (active)"
  }
]

---

Assay: qHTS for identification of novel therapeutic agents for treatment of microphthalmiaassociated transcription factor (MiT) renal cell carcinoma (RCC) (AID 1963991);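 also: curves scaled with 100% = DMSO viability and 0% = empty wells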
Conditions: TFE3-RCC viability, CellTiter-Glo, 48 h; measured here: UOK124 Z-AUC; stronger effect = lower value
Records with an inconclusive call do not appear.
In this section we review reported z-score values for a set of compounds.

[
  {
    "compound smiles": "CO[C@H]1C=CO[C@@]2(C)Oc3c(C)c(O)c4c(O)c(c(C=NN5CCN(C)CC5)c(O)c4c3C2=O)NC(=O)C(C)=CC=C[C@H](C)[C@H](O)[C@@H](C)[C@@H](O)[C@@H](C)[C@H](OC(C)=O)[C@H]1C",
    "z-score": 2
  },
  {
    "compound smiles": "CCOC(=O)N1c2ccc(C(F)(F)F)cc2[C@@H](N(Cc2cc(C(F)(F)F)cc(C(F)(F)F)c2)C(=O)OC)C[C@H]1CC",
    "z-score": 0.72
  },
  {
    "compound smiles": "Cc1cc(NC(=O)Nc2ccc(N(C)C)cc2)c2cc(F)cc(F)c2n1",
    "z-score": 0.89
  },
  {
    "compound smiles": "N#Cc1c(N(CC(=O)O)CC(=O)O)sc(C(=O)O)c1CC(=O)O",
    "z-score": 0.354
  },
  {
    "compound smiles": "CC(=O)OCC(=O)[C@@]12OC(C)(C)O[C@H]1C[C@H]1[C@@H]3C[C@H](F)C4=CC(=O)C=C[C@]4(C)[C@@]3(F)[C@@H](O)C[C@@]12C",
    "z-score": 0.68
  },
  {
    "compound smiles": "NS(=O)(=O)c1cc(Cl)c(Cl)c(S(N)(=O)=O)c1",
    "z-score": 0.351
  },
  {
    "compound smiles": "Cc1cn([C@@H]2C[C@@H](O)[C@H](CO)O2)c(=O)[nH]c1=O",
    "z-score": 1.9
  },
  {
    "compound smiles": "C[C@H](c1ccc(F)cc1CCCC(=O)O)N(c1cc(F)ccc1F)S(=O)(=O)c1ccc(Cl)cc1",
    "z-score": -0.0423
  }
]

---

Assay: qHTS Screen of the MIPE 4.0 Collection Against Ewings Sarcoma (RDES) (AID 1259252); also: nearly all actives have a fitted effect of over 35% in size
Conditions: RD-ES Ewing sarcoma viability, CellTiter-Glo, 48 h; series mostly up to 45.8 µM
Inconclusive results are not listed. Activity calls are given as the source filed them. The call rests on the fitted dose curve; in most records, active means well fitted inhibition curve with a large enough effect; inconclusive means small, poorly fitted or top-dose-only effect; inactive means no such curve, though single readings can be large or run the other way.
Classes used: true (1) for active, false (0) for inactive

[
  {
    "compound": "COc1ccc(CCC(=O)Nc2nc3ccc(Cl)cc3s2)cc1OC",
    "answer label": "true (1)"
  },
  {
    "compound": "O=C(O)c1nc(=O)[nH]c(=O)[nH]1",
    "answer label": "false (0)"
  },
  {
    "compound": "O=C(Nc1ccccc1)Nc1ccc(-c2ccc(C(=O)[C@H]3CCC[C@H]3C(=O)O)cc2)cc1",
    "answer label": "true (1)"
  },
  {
    "compound": "COc1cc2c(cc1OC)[C@@H]1Cc3ccc(OC)c(OC)c3CN1CC2",
    "answer label": "true (1)"
  },
  {
    "compound": "CN(C)CCN(C)C(=O)c1ccc(NC(=O)Nc2ccc(-c3nc(N4CCOCC4)c4ccn(CC(F)(F)F)c4n3)cc2)cc1",
    "answer label": "true (1)"
  },
  {
    "compound": "CC1CNc2c(cccc2S(=O)(=O)N[C@@H](CCCN=C(N)N)C(=O)N2CC[C@@H](C)C[C@@H]2C(=O)O)C1 (some centres not stated)",
    "answer label": "true (1)"
  },
  {
    "compound": "CCNC(=O)Nc1ccc(Oc2ncnc(N)c2C=NOC)cc1Cl",
    "answer label": "true (1)"
  },
  {
    "compound": "CCCCCCCCCCCCCCCC(=O)O[C@H]1[C@@H](O)[C@@H](O)[C@@H]([C@H](NC(=O)[C@@H]2C[C@@H](CCC)CN2C)[C@H](C)Cl)O[C@@H]1SC",
    "answer label": "false (0)"
  },
  {
    "compound": "CCc1cccc(CC)c1NC(=O)N1Cc2[nH]nc(NC(=O)c3ccc(N4CCN(C)CC4)cc3)c2C1",
    "answer label": "true (1)"
  },
  {
    "compound": "COc1cc2nccc(Oc3ccc(NC(=O)Nc4cc(C)on4)c(Cl)c3)c2cc1OC",
    "answer label": "true (1)"
  },
  {
    "compound": "N#Cc1ccc(Oc2ccc3c(c2)COB3O)cc1",
    "answer label": "false (0)"
  },
  {
    "compound": "CC[C@]1(O)C[C@H]2CN(CCC3=c4ccccc4=N[C]3[C@@](C(=O)OC)(c3cc4c(cc3OC)N(C)[C@H]3[C@@](O)(C(N)=O)[C@H](O)[C@]5(CC)C=CCN6CC[C@]43[C@@H]65)C2)C1",
    "answer label": "true (1)"
  },
  {
    "compound": "COc1cc(Nc2nc3ccccc3nc2NS(=O)(=O)c2ccc(NC(=O)c3ccc(C)c(OC)c3)cc2)cc(OC)c1",
    "answer label": "true (1)"
  },
  {
    "compound": "CC1=C[C@@H]2[C@@H]([C@@H](O)C[C@@]3(C)[C@H]2C[C@@H](C)[C@]3(O)C(=O)CO)[C@@]2(C)Cc3cnn(-c4ccccc4)c3C=C12",
    "answer label": "true (1)"
  },
  {
    "compound": "CCCCc1ccc(NS(=O)(=O)c2ccc(C)c(C(=O)N3CCN(c4cccc(C)c4C)CC3)c2)cc1",
    "answer label": "false (0)"
  },
  {
    "compound": "Cn1c(=O)c(Oc2ccc(F)cc2F)cc2cnc(NC3CCOCC3)nc21",
    "answer label": "false (0)"
  },
  {
    "compound": "CCC[C@H](Nc1nc(-c2ccc(NC(=O)NCC)c(OC)c2)ncc1C)c1cccnc1",
    "answer label": "true (1)"
  }
]
